endpoint-label: log10 of MIC (log10 of the value in µM)
Units before log transform: µM; reported quantity: MIC; transform: log10.

Input: Under Mycobacterium tuberculosis H37Ra ATCC 25177: report log10 of MIC of CCCCOc1ccc(NC(=O)c2ccc3ccccc3c2O)cc1 [Compound 12c] .
Output: 2.87

Input: Under Mycobacterium tuberculosis H37Ra ATCC 25177: report log10 of MIC of `CCCOc1ccccc1NC(=O)c1c(O)ccc2ccccc12` .
Output: 1.57

Input: Under Mycobacterium tuberculosis H37Ra ATCC 25177: report log10 of MIC of `CC(C)Oc1ccccc1NC(=O)c1c(O)ccc2ccccc12` .
Output: 1.49

Input: Under Mycobacterium tuberculosis H37Ra ATCC 25177: report log10 of MIC of `COc1ccc(NC(=O)c2ccc3ccccc3c2O)cc1` .
Output: 2.93

Input: Under Mycobacterium tuberculosis H37Ra ATCC 25177: report log10 of MIC of `COc1cccc(NC(=O)c2c(O)ccc3ccccc23)c1` .
Output: 2.93

Input: Under Mycobacterium tuberculosis H37Ra ATCC 25177: report log10 of MIC of `CCOc1ccccc1NC(=O)c1c(O)ccc2ccccc12` .
Output: 1.41

Input: Under Mycobacterium tuberculosis H37Ra ATCC 25177: report log10 of MIC of CCC(C)Oc1cccc(NC(=O)c2c(O)ccc3ccccc23)c1 (centres unmarked) .
Output: 1.36

Input: Under Mycobacterium tuberculosis H37Ra ATCC 25177: report log10 of MIC of CCC(C)Oc1ccccc1NC(=O)c1ccc2ccccc2c1O (centres unmarked) [Compound 14a] .
Output: 2.87

Input: Under Mycobacterium tuberculosis H37Ra ATCC 25177: report log10 of MIC of `CCOc1cccc(NC(=O)c2c(O)ccc3ccccc23)c1` .
Output: 2.91

Input: Under Mycobacterium tuberculosis H37Ra ATCC 25177: report log10 of MIC of CCCCOc1ccccc1NC(=O)c1ccc2ccccc2c1O [Compound 12a] .
Output: 2.87

Input: Under Mycobacterium tuberculosis H37Ra ATCC 25177: report log10 of MIC of `COc1cccc(NC(=O)c2ccc3ccccc3c2O)c1` .
Output: 2.93

Input: Under Mycobacterium tuberculosis H37Ra ATCC 25177: report log10 of MIC of `O=C(Nc1ccccc1)c1ccc2ccccc2c1O` .
Output: 1.99

Input: Under Mycobacterium tuberculosis H37Ra ATCC 25177: report log10 of MIC of `COc1ccc(NC(=O)c2c(O)ccc3ccccc23)cc1` .
Output: 2.93

Input: Under Mycobacterium tuberculosis H37Ra ATCC 25177: report log10 of MIC of CCCOc1cccc(NC(=O)c2ccc3ccccc3c2O)c1 [Compound 11b] .
Output: 1.38

Input: Under Mycobacterium tuberculosis H37Ra ATCC 25177: report log10 of MIC of `CCOc1ccc(NC(=O)c2c(O)ccc3ccccc23)cc1` .
Output: 1.41

Input: Under Mycobacterium tuberculosis H37Ra ATCC 25177: report log10 of MIC of CC(C)Oc1ccc(NC(=O)c2ccc3ccccc3c2O)cc1 [Compound 13c] .
Output: 2.89

Input: Under Mycobacterium tuberculosis H37Ra ATCC 25177: report log10 of MIC of CO[C@H]1/C=C/O[C@@]2(C)Oc3c(C)c(O)c4c(O)c(c(/C=N/N5CCN(C)CC5)c(O)c4c3C2=O)NC(=O)/C(C)=C\C=C\[C@H](C)[C@H](O)[C@@H](C)[C@@H](O)[C@@H](C)[C@H](OC(C)=O)[C@@H]1C [RIF, rifampicin, reference compound] .
Output: 1.00

Input: Under Mycobacterium tuberculosis H37Ra ATCC 25177: report log10 of MIC of `CC(C)Oc1ccc(NC(=O)c2c(O)ccc3ccccc23)cc1` .
Output: 1.40

Input: Under Mycobacterium tuberculosis H37Ra ATCC 25177: report log10 of MIC of CCCCOc1cccc(NC(=O)c2ccc3ccccc3c2O)c1 [Compound 12b] .
Output: 1.36

Input: Under Mycobacterium tuberculosis H37Ra ATCC 25177: report log10 of MIC of CC(C)Oc1ccccc1NC(=O)c1ccc2ccccc2c1O [Compound 13a] .
Output: 2.89
